These entries and their values trace back to ChEMBL document CHEMBL1201862.

# System: UACC-257
# assay: NCI tumour cell line growth inhibition, 48 h
Activity calls are given as the source filed them. Cut-off read from the data, not from the text of the source: active = GI50 up to about 1.1 µM and inactive = higher.
reported_endpoint: GI50

compound="O=C1Sc2ccccc2C(=O)N2CCSC12 (stereo not drawn)" reported_endpoint=GI50 reading="> 100 µM (inactive)"
compound=C(=N\c1ccc(-c2nc3ccccc3[nH]2)cc1)/c1cccs1 reported_endpoint=GI50 reading="> 100 µM (inactive)"
compound=O=C(NCCc1ccccc1)[C@H]1CCCC[C@@H]1CCO reported_endpoint=GI50 reading="> 100 µM (inactive)"
compound="CCCC(C(=O)Nc1cccc2nc[nH]c12)C(=O)OCC (stereo not drawn)" reported_endpoint=GI50 reading="> 100 µM (inactive)"

Input line: Value lookup for GI50; key = COC(=O)C(=O)C(C(=O)C(=O)Nc1ccc(C)cc1)c1nc2ccc(C(=O)c3ccccc3)cc2nc1O (stereo not drawn)
Output line: > 100 µM (inactive)

Input line: Here is the next compound: `Cc1cn(CC2=NCC(C)(C)N2)c(=O)[nH]c1=O`
Output line: > 100 µM (inactive)

Input line: Now give it for `COC(=O)[C@@H](OC(C)=O)[C@@H](OC(C)=O)c1nnc2ccc(Cl)nn12` too.
Output line: 87.9 µM (inactive)

Input line: # repeat for `Cc1c2c(c(C)c3c1[nH]c1ccccc13)CN(C)CC2`
Output line: 17.2 µM (inactive)

Input line: Field entry: CCCCCCCCCCCC1CC(=O)NCCCN(C)CCCCN(C)CCCN1C (stereo not drawn)
Output line: 1.68 µM (inactive)

Input line: Moving on to `CC(C)/C(Cl)=N/OC(=O)Nc1ccc(OC(F)(F)F)cc1`
Output line: 13.7 µM (inactive)

Input line: Same again, this time with COc1cc(C2c3cc4c(cc3[C@@H](Nc3ccc(F)cc3)C3COC(=O)[C@H]23)OCO4)cc(OC)c1O (stereo partly drawn)
Output line: 6.05 µM (inactive)

Input line: Then what about the compound `Nc1nc(Cl)cc(NCC2(CO)CCCCC2)n1` ?
Output line: 64.7 µM (inactive)

Input line: One more compound: Cc1ccc(C2=NN(C)COC2C(F)(F)F)cc1 (stereo not drawn)
Output line: > 100 µM (inactive)

Input line: Same again, this time with `O=c1oc2ccc3ccccc3c2cc1-c1nnc(-c2ccc([N+](=O)[O-])cc2)[nH]1`
Output line: > 100 µM (inactive)

Input line: What would you report for CC(N)(Cc1c[nH]c2ccccc12)C(=O)O (stereo not drawn) ?
Output line: > 100 µM (inactive)

Input line: What do you get for `N/C(=N\c1ccc(Cl)cc1)NS(=O)(=O)c1ccc(-c2ccccn2)s1` ?
Output line: 7.91 µM (inactive)

Input line: Another compound to look at: Cc1ccc(C)c(NC(=O)C(=O)CC(=O)C2CCOC2=O)c1 (stereo not drawn)
Output line: > 100 µM (inactive)

Input line: Subsequent entry: `COc1ccc(-c2nc(-c3cnccn3)n(COCCO)n2)cc1`
Output line: > 100 µM (inactive)

Input line: // repeat for `CCc1nnc(CC)n1-n1c(Cc2ccccc2)n[nH]c1=O` and report
Output line: > 100 µM (inactive)

Input line: Input CCOP(=O)(OCC)C(C)(CC)N/C(N)=N/C#N (stereo not drawn)
Output line: > 100 µM (inactive)

Input line: Query `O=C(CNCc1ccccc1)Oc1c(Cl)c(Cl)c(Cl)c(Cl)c1Cl` next
Output line: 23.1 µM (inactive)

Input line: Cool, now CC1CN(c2ccc(Cl)cc2)CC(C)(C)OC(=O)O1 (stereo not drawn)
Output line: > 100 µM (inactive)

Input line: Param item: `CN(C)C(=O)OC(Cn1cncn1)(Cn1cncn1)c1ccc(Cl)cc1Cl`
Output line: > 100 µM (inactive)
